# Lookup of reported absorbance at 450 nm keyed by entry
SYSTEM TESTED: dog IgG Fab fragment
EXPERIMENT NOTES: ELISA, coated antigen, E. coli supernatant
ENDPOINT NAME: absorbance at 450 nm (A450)

[[record]]
binder = "SVG19 (VHH, not shown: large carriers) VHH: QVQLQQSGGGLVQPGGSLRLSCAASGFTFSSYAMSWVRQAPGKGLEWVSAINSGGGSTSYADSVKGRFTISRDNAKNTLYLQMNSLKPEDTAVYYCAKDFDPWGVGTGGYDYWGQGTQVTVSS"
endpoint_name = "absorbance at 450 nm"
quantitative_result = 1.22

[[record]]
binder = "SVG03 (VHH, not shown: large carriers) VHH: QVQLQESGGGLVQAGGSLRLSCAASGRTFSNYVMGWFRQAPGKEREFVSAISWNGVSTFYADSVKGRFTISRDNAKNTVYLQMNSLKPEDTAVYYCAADERFVVRYNYWGQGTQVTVSS"
endpoint_name = "absorbance at 450 nm"
quantitative_result = 0.054


Where these numbers come from: patent US20240376185A1
